Biological target: Syk catalytic domain (aa 356-635 with a C-terminal His-tag) (Homo sapiens, UniProt P43405)
Construct: His-tag (C); made in house
Test: In vitro Syk kinase activity measured by trFRET, Syk catalytic domain
Type: biochemical
Protocol: In Vitro Syk Kinase Activity Measured by Time-Resolved Fluorescence Resonance Energy Transfer (trFRET) 0.14 nM purified Syk catalytic domain (aa 356-635 with a C-terminal His-tag purified in-house by immobilized metal ion affinity chromatography) was mixed with 0.2 μM peptide substrate (biotin-TYR1, Sequence: Biotin-(Ahx)-GAEEEIYAAFFA-COOH) at varying inhibitor concentrations in reaction buffer: 50 mM MOPSO pH 6.5, 10 mM MgCl2, 2 mM MnCl2, 2.5 mM DTT, 0.01% BSA, 0.1 mM Na3VO4 and 0.001 mM ATP. […]

- molecule: "CC(C)(N)c1ccc(-c2nc(C3CCCCC3)n3c2cnc2[nH]ccc23)cc1"
  IC50: "100 to 1000 nM"
- molecule: "Cc1nc(-c2ccc(OCC(=O)O)cc2)c2cnc3[nH]ccc3n12"
  IC50: "100 to 1000 nM"
- molecule: "Cc1nc(-c2ccc(CO)nc2)c2cnc3[nH]ccc3n12"
  IC50: "100 to 1000 nM"
- molecule: "COc1c(C)cc(-c2nc(C)n3c2cnc2[nH]ccc23)cc1C"
  IC50: "< 100 nM"
- molecule: "CC(C)(O)c1ccc(-c2nc([C@H]3CCC[C@H](N)C3)n3c2cnc2[nH]ccc23)cc1"
  IC50: "< 100 nM"
- molecule: "Cc1nc(-c2ccc(C3(O)COC3)cc2)c2cnc3[nH]ccc3n12"
  IC50: "100 to 1000 nM"
- molecule: "Cc1ccc(-c2nc(C3CCCCC3)n3c2cnc2[nH]ccc23)cc1"
  IC50: "100 to 1000 nM"
- molecule: "CCc1c(-c2ccc(C(C)(C)O)cc2)[nH]c2ncc3cnc(N(C)C)n3c12"
  IC50: "100 to 1000 nM"
- molecule: "CC(C)(CO)c1ccc(-c2ncn3c2cnc2[nH]ccc23)cc1"
  IC50: "< 100 nM"
- molecule: "OCc1ccc(-c2ncn3c2cnc2[nH]ccc23)cc1"
  IC50: "100 to 1000 nM"
- molecule: "c1cnc(-c2nc(C3CCCCC3)n3c2cnc2[nH]ccc23)cn1"
  IC50: "1000 to 10000 nM"
- molecule: "CCc1c(-c2ccc(C(C)(C)O)cc2)[nH]c2ncc3cccn3c12"
  IC50: "< 100 nM"
- molecule: "Cc1ncccc1-c1nc(-c2ccc(C(C)(C)O)cc2)c2cnc3[nH]ccc3n12"
  IC50: "100 to 1000 nM"
- molecule: "CCc1c(-c2ccc(C(C)(C)O)cc2)[nH]c2nc(C)c3cncn3c12"
  IC50: "100 to 1000 nM"
- molecule: "Cc1c(-c2ccc(C(C)(C)O)cc2)[nH]c2ncc3nnc(C)n3c12"
  IC50: "1000 to 10000 nM"
- molecule: "CC(C)(O)c1ccc(-c2nc(CCCN)n3c2cnc2[nH]ccc23)cc1"
  IC50: "100 to 1000 nM"
- molecule: "CC(C)(O)c1ccc(-c2ncn3c2cnc2[nH]cc(C4=CCNCC4)c23)cc1"
  IC50: "1000 to 10000 nM"
- molecule: "CC(=O)c1ccc(-c2nn(C)c3c2cnc2[nH]ccc23)cc1"
  IC50: "100 to 1000 nM"
- molecule: "CC(C)(O)c1ccc(-c2ncn3c2cnc2[nH]ccc23)cc1F"
  IC50: "< 100 nM"
- molecule: "Cc1nc(-c2cnn(CC(C)(C)O)c2)c2cnc3[nH]ccc3n12"
  IC50: "100 to 1000 nM"
- molecule: "CN(C)C(=O)c1ccc(-c2nc(C3CCCCC3)n3c2cnc2[nH]ccc23)cc1"
  IC50: "100 to 1000 nM"

Origin of values: patent US20140349970A1
